- target.under.test: T1, XtrLin28b ZKD (Xenopus tropicalis, UniProt B4F6I0 125-175)
- T1 sequence: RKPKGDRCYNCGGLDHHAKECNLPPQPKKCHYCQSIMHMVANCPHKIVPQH
- assay.protocol: ITC
pKd: −log10 of the molar value.
Output condition met for pKd not less than 7; output condition not met otherwise.

- binder: "AAGGAGAA (ssRNA) [rZ1]"
  category.label: "condition met"

Would you say AAGAAGAA (ssRNA) [rZ4] shows pKd at minimum 7? condition not met

Given the entry AAAGAGAA (ssRNA) [rZ3] , answer whether its pKd meets or surpasses 7. condition not met

Is it the case that AAAGAAAA (ssRNA) [rZ7] has pKd reaching or exceeding 7? condition not met

Could you verify whether the entry AAGGUGAA (ssRNA) [rZ2] shows pKd of no less than 7? condition met

Entry source: paper PMC3424542
